TARGET: 5-HT2C receptor (Homo sapiens, UniProt P28335)
Sequence (P28335 33-458): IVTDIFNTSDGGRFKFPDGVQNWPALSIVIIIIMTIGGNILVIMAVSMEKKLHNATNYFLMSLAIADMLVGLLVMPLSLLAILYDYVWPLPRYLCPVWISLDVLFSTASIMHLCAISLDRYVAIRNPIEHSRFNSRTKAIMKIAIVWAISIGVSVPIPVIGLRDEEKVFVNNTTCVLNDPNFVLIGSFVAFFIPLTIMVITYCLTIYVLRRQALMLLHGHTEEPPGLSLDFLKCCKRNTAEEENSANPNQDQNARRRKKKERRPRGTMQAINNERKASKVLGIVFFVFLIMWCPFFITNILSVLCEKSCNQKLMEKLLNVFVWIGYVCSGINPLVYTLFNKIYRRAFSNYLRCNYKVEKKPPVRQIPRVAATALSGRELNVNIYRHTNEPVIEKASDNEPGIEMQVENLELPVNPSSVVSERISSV
TEST SUMMARY: G protein (Gq) dissociation BRET assay
CONDITION LABEL: EC50, Gq dissociation, Gq dissociation BRET
pEC50: −log10 of the molar value.
REPORTED ENDPOINT: pEC50

MOLECULE	TARGET	RECORDED RESULT
CC[C@@H](N)Cc1cc(OC)c(C)cc1OC [(R)-Ariadne]	5-HT2C receptor (Homo sapiens, UniProt P28335)	6.60

* * *

TARGET: 5-HT6 receptor (Homo sapiens, UniProt P50406)
Sequence (P50406 whole entry): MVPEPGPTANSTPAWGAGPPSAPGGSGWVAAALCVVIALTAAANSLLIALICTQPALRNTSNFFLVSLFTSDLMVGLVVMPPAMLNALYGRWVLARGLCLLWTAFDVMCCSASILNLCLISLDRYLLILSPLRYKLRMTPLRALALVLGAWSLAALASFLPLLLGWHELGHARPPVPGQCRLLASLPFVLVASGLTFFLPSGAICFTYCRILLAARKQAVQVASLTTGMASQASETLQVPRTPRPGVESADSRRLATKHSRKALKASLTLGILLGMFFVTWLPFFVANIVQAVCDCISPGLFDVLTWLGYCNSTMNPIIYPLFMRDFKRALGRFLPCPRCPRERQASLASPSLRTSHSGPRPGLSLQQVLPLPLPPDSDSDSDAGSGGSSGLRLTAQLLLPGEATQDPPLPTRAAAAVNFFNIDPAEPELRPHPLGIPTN
TEST SUMMARY: 5-HTome G protein activation BRET assay

COMPOUND	EC50
CCC(N)Cc1cc(OC)c(C)cc1OC (racemic)	> 10 µM

* * *

TEST SUMMARY: Pharmacokinetic assessment, plasma and brain
Format: in vivo, male C57BL/6 mice
CONDITION LABEL: male, C57BL/6, mouse, brain and plasma; SC 10 mg/kg; 8 hr; read-out: Brain/Plasma ratio
Method: PK assessments were performed at Sai Life (Telangana, India) according to the following general procedure. A total twenty-seven male C57BL/6 mice were used in this study with 3 mice per time point. Animals were administered subcutaneously at 10 mg/kg dose of test article. The formulation vehicle used was 0.9% normal saline. […] All samples were processed for analysis by protein precipitation method and analyzed with fit-for-purpose LC-MS/MS method (LLOQ=5.16 ng/mL for plasma and 2.06 ng/mL for brain).

MOLECULE	Kp at 8 h
CCC(N)Cc1cc(OC)c(C(F)(F)F)cc1OC (racemic)	12.7

* * *

Entries and their EC50 values follow.
TARGET: 5-HT2A (Homo sapiens, UniProt P28223)
Sequence (P28223 whole entry): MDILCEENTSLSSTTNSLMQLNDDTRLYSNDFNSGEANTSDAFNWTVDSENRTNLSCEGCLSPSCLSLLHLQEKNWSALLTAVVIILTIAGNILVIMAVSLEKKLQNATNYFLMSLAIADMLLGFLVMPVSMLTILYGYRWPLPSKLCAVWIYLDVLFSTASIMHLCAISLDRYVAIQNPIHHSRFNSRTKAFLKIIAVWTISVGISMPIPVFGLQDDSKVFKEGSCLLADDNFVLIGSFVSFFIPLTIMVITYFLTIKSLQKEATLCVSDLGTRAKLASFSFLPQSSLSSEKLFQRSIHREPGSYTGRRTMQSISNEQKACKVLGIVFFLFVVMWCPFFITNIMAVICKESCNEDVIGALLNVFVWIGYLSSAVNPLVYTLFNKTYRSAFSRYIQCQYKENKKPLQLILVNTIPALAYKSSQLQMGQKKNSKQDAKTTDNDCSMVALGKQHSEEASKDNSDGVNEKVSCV
TEST SUMMARY: G protein (Gq) dissociation BRET assay
Type: cell-based
Parameters: host or cells: HEK293T (ATCC CRL-11268)
CONDITION LABEL: EC50, agonist activity, 5-HTome screen
REPORTED ENDPOINT: EC50

MOLECULE	TARGET	RECORDED RESULT
CCC(N)Cc1cc(OC)c(C)cc1OC (racemic)	5-HT2A (Homo sapiens, UniProt P28223)	< 1000 nM
CC[C@@H](N)Cc1cc(OC)c(C)cc1OC [(R)-Ariadne]	5-HT2A (Homo sapiens, UniProt P28223)	< 1000 nM

* * *

Entries and their concentration at 1 hr values follow.
TEST SUMMARY: Pharmacokinetic assessment, plasma and brain
Type: in vivo, male C57BL/6 mice
CONDITION LABEL: male, C57BL/6, mouse, brain; SC 10 mg/kg; 1 hr; read-out: Mean brain Concentration

COMPOUND	concentration at 1 hr
CCC(N)Cc1cc(OC)c(C)cc1OC (racemic)	5240 ng/g
CCC(N)Cc1cc(OC)c(C(F)(F)F)cc1OC (racemic)	3900 ng/g

* * *

TEST SUMMARY: Pharmacokinetic assessment, plasma and brain
Assay type: in vivo, male C57BL/6 mice
CONDITION LABEL: male, C57BL/6, mouse, plasma; SC 10 mg/kg; 0.25 hr; read-out: Mean plasma Concentration
Entries and their concentration at 0.25 hr values follow.

MOLECULE	QUANTITY UNIT	concentration at 0.25 hr
CCC(N)Cc1cc(OC)c(C)cc1OC (racemic) [Compound 32]	µg/mL	0.802
CCC(N)Cc1cc(OC)c(C(F)(F)F)cc1OC (racemic) [Compound 29]	µg/mL	0.467

* * *

Entries and their concentration at 4 hr values follow.
TEST SUMMARY: Pharmacokinetic assessment, plasma and brain
Type: in vivo, male C57BL/6 mice
CONDITION LABEL: male, C57BL/6, mouse, brain; SC 10 mg/kg; 4 hr; read-out: Mean brain Concentration

COMPOUND	concentration at 4 hr [ng/g]
CCC(N)Cc1cc(OC)c(C)cc1OC (racemic) [Compound 32]	368
CCC(N)Cc1cc(OC)c(C(F)(F)F)cc1OC (racemic) [Compound 29]	787

* * *

Entries and their EC50 values follow.
TARGET: 5-HT2A (Homo sapiens, UniProt P28223)
TEST SUMMARY: G protein (Gq) dissociation BRET assay
Type: cell-based
Design: host or cells: HEK293T (ATCC CRL-11268)
CONDITION LABEL: EC50 (EC50/Gq), Gq dissociation, Gq dissociation BRET

COMPOUND	TARGET	EC50 / nM
CC[C@@H](N)Cc1cc(OC)c(C)cc1OC [(R)-Ariadne]	5-HT2A (Homo sapiens, UniProt P28223)	149
CCC(N)Cc1cc(OC)c(I)cc1OC (stereo not drawn) [Compound 34]	5-HT2A (Homo sapiens, UniProt P28223)	16
CCC(N)Cc1cc(OC)c(C)cc1OC (racemic) [Compound 32]	5-HT2A (Homo sapiens, UniProt P28223)	185

* * *

Entries and their concentration at 0.5 hr values follow.
TEST SUMMARY: Pharmacokinetic assessment, plasma and brain
Assay type: in vivo, male C57BL/6 mice
CONDITION LABEL: male, C57BL/6, mouse, brain; SC 10 mg/kg; 0.5 hr; read-out: Mean brain Concentration

COMPOUND	concentration at 0.5 hr / ng/g
CCC(N)Cc1cc(OC)c(C)cc1OC (racemic) [Compound 32]	5610
CCC(N)Cc1cc(OC)c(C(F)(F)F)cc1OC (racemic) [Compound 29]	3770

* * *

TEST SUMMARY: Pharmacokinetic assessment, plasma and brain
Format: in vivo, male C57BL/6 mice
CONDITION LABEL: male, C57BL/6, mouse, plasma; SC 10 mg/kg; 2 hr; read-out: Mean plasma Concentration
Entries and their concentration at 2 hr values follow.

MOLECULE	QUANTITY UNIT	concentration at 2 hr
CCC(N)Cc1cc(OC)c(C(F)(F)F)cc1OC (racemic)	ng/mL	95.5
CCC(N)Cc1cc(OC)c(C)cc1OC (racemic)	ng/mL	172

* * *

TARGET: 5-HT2B (Homo sapiens, UniProt P41595)
Sequence (P41595 whole entry): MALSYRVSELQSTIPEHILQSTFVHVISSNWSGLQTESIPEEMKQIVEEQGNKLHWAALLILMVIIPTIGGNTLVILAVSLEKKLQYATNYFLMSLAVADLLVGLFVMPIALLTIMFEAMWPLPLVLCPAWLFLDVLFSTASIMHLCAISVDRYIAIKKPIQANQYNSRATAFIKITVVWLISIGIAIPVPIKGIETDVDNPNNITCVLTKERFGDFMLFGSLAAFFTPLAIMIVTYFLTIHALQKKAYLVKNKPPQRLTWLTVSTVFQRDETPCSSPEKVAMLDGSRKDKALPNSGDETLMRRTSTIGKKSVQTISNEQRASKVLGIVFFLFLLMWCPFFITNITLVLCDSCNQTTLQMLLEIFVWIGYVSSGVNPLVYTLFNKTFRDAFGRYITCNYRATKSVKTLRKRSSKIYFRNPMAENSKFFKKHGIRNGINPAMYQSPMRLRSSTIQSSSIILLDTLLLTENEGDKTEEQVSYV
TEST SUMMARY: IP1 agonism (IP1 formation assay), Cerep, Eurofins
Assay type: cell-based
Set-up: purchased Cerep, Eurofins (contract assay)
CONDITION LABEL: EC50 (5-HT2B) (M), Table 7; IP1 agonism, duplicate averages only
Entries and their EC50 values follow.

MOLECULE	QUANTITY UNIT	EC50
CCC(N)Cc1cc(OC)c(C(C)(F)F)cc1OC (stereo not shown)	M	1.1e-07
CCC(N)Cc1cc(OC)c(C(F)(F)CC)cc1OC (stereo not shown)	M	1.9e-07
CCC(N)Cc1cc(OC)c(C)cc1OC (racemic)	M	1.7e-06
CCC(N)Cc1cc(OC)c(C(F)(F)F)cc1OC (racemic)	M	4e-07

* * *

TARGET: 5-HT2B (Homo sapiens, UniProt P41595)
TEST SUMMARY: IP1 agonism (IP1 formation assay), Cerep, Eurofins
Format: cell-based
Parameters: purchased Cerep, Eurofins (contract assay)
CONDITION LABEL: 5-HT2b (IP1 agonism), Table 2; duplicate averages only
pEC50: −log10 of the molar value. Counter-ions that a name gives are not always drawn.
REPORTED ENDPOINT: pEC50

COMPOUND	TARGET	REPORTED ENDPOINT	INEQUALITY SIGN	RECORDED RESULT
CCC(N)Cc1cc(OC)c(C(F)(F)F)cc1OC (racemic)	5-HT2B (Homo sapiens, UniProt P41595)	pEC50	=	6.20
CCC(N)Cc1cc(OC)c(S(C)(=O)=O)cc1OC (centres unmarked) [Compound 33, trifluoroacetate]	5-HT2B (Homo sapiens, UniProt P41595)	pEC50	=	4.60
CCC(N)Cc1cc(OC)c(C)cc1OC (racemic)	5-HT2B (Homo sapiens, UniProt P41595)	pEC50	<	4.49
CCSc1cc(OC)c(CC(N)CC)cc1OC (centres unmarked)	5-HT2B (Homo sapiens, UniProt P41595)	pEC50	=	6.20
CCC(N)Cc1cc(OC)c(Cl)cc1OC (centres unmarked)	5-HT2B (Homo sapiens, UniProt P41595)	pEC50	=	4.85

This collection of values is drawn from patent US20260021061A1.
